Catalogue of binders with associated interaction score
Biological target: T1, P2A-bS
T1 chain: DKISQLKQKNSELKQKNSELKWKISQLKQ
Test: two-hybrid library CCNG1;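 note: natural log of median RNA to DNA barcode read ratio; higher means stronger binding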
Response field accepts a number only; no unit should be typed.

> print(dat)
                                    binder  data.value
1  DKNSQLKQKISELKQKISELKWENSQLEQ [P12A-bS]       -1.69
2  DKNSQLKQENSELEQKISELKWKISQLKQ [P10A-bS]     -0.0157
3   DKISQLKQKNSELKQKNSELKWKISQLKQ [P2A-bS]       -1.36
4  DENSQLEQEISELEQEISELEWKNSQLKQ [P11A-bS]      -0.288

Now, please, on to the next binder.
query: Look up interaction score for this binder: DEISQLEQENSELEQENSELEWEISQLEQ [P1A-bS]
result: 1.9
